# System: OPM-2 (Plasma Cell Myeloma)
# assayProtocol: combination Emax (second highest fraction inhibited in the dose matrix, 72 h); higher = more inhibition; extreme values may be limits of the assay
Would you mind telling me the reported combination Emax of each entry?
Numbers only.

Here's what some known entries look like.
Cc1c2c(nn1C)CSCc1cc(n(C)n1)CSc1cc(c3ccccc3c1)OCCCc1c(C(=O)O)n(C)c3c-2c(Cl)ccc13 [AZD5991] + CN(C)CCCOc1ccc(-c2ccc3ncc4c(c3c2)n(C2CCOCC2)c(=O)n4C)cn1 [AZD0156] (first compound max 1 µM, 7x7, partner max 1 µM)    1
CN(CCO)CC[C@H](CSc1ccccc1)Nc1ccc(S(=O)(=O)NC(=O)c2ccc(N3CCC([C@@H](O)c4ccccc4-c4ccc(Cl)cc4)CC3)cc2)cc1S(=O)(=O)C(F)(F)F [AZD4320] + Cc1cc2ncnn2cc1Nc1ncc2c(n1)n(C1CCOCC1)c(=O)n2C [AZD7648] (first compound max 1 µM, 7x7, partner max 10 µM)    0.71
CS(=O)(=O)CCNCc1ccc(-c2ccc3ncnc(Nc4ccc(OCc5cccc(F)c5)c(Cl)c4)c3c2)o1 [Lapatinib] + C[C@@H](Oc1cc(-c2cnn(C3CCNCC3)c2)cnc1N)c1c(Cl)ccc(F)c1Cl [Crizotinib] (first compound max 10 µM, 7x7, partner max 10 µM)    0.944

List reported combination Emax for each of these compounds:
1. CN(CCO)CC[C@H](CSc1ccccc1)Nc1ccc(S(=O)(=O)NC(=O)c2ccc(N3CCC([C@@H](O)c4ccccc4-c4ccc(Cl)cc4)CC3)cc2)cc1S(=O)(=O)C(F)(F)F [AZD4320] + C1CN(CCC1(C(=O)N[C@@H](CCO)C2=CC=C(C=C2)Cl)N)C3=NC=NC4=C3C=CN4 [Capivasertib] (first compound max 1 µM, 7x7, partner max 3 µM)
2. NC1(C(=O)N[C@@H](CCO)c2ccc(Cl)cc2)CCN(c2ncnc3[nH]ccc23)CC1 [Capivasertib] + COc1nnc2ccc(N3CCC(c4ccc(OCCN5CCN(C)C(=O)[C@H]5C)cc4)CC3)nn12 [AZD5153] (first compound max 10 µM, 7x7, partner max 1 µM)
3. CN(CCO)CC[C@H](CSc1ccccc1)Nc1ccc(S(=O)(=O)NC(=O)c2ccc(N3CCC([C@@H](O)c4ccccc4-c4ccc(Cl)cc4)CC3)cc2)cc1S(=O)(=O)C(F)(F)F [AZD4320] + Cn1cnc2c(F)c(Nc3ccc(Br)cc3Cl)c(C(=O)NOCCO)cc21 [Selumetinib] (first compound max 1 µM, 7x7, partner max 3 µM)

Reply |
[0.955, 1, 0.556]

----------
Kindly state combination Emax for each of the entries shown.
# System: RKN (Other Solid Carcinomas)
# assayProtocol: combination Emax (second highest fraction inhibited in the dose matrix, 72 h); higher = more inhibition; extreme values may be limits of the assay
Numbers only.

CC1(C)CCC(CN2CCN(c3ccc(C(=O)NS(=O)(=O)c4ccc(NCC5CCOCC5)c([N+](=O)[O-])c4)c(Oc4cnc5[nH]ccc5c4)c3)CC2)=C(c2ccc(Cl)cc2)C1 [Venetoclax] + CS(=O)(=O)CCNCc1ccc(-c2ccc3ncnc(Nc4ccc(OCc5cccc(F)c5)c(Cl)c4)c3c2)o1 [Lapatinib] (first compound max 1 µM, 7x7, partner max 10 µM)    0.171
C=CCn1c(=O)c2cnc(Nc3ccc(N4CCN(C)CC4)cc3)nc2n1-c1cccc(C(C)(C)O)n1 [AZD1775] + C1CN(CCC1(C(=O)N[C@@H](CCO)C2=CC=C(C=C2)Cl)N)C3=NC=NC4=C3C=CN4 [Capivasertib] (first compound max 3 µM, partner max 3 µM)    0.762

Field: next compound
Ask | Need combination Emax of N#Cc1cnc(Nc2cc(NC[C@H]3CNCCO3)c(C(F)(F)F)cn2)cn1 [SRA737] + CCc1c2c(nc3ccc(O)cc13)-c1cc3c(c(=O)n1C2)COC(=O)[C@]3(O)CC [SN-38] (first compound max 10 µM, 7x7, partner max 0.3 µM) , thanks.
Reply | 0.858
